Hey, just so you know, these numbers are from PubChem BioAssay (NCI).

- Test system: HOP-92 NSCLC
- assay.comment: NCI tumour cell line growth inhibition, 48 h
observed.property: TGI (µM)
Answers are plain numbers, in µM.

As a guide, the following entries are already answered.
{"compound": "COc1ccc(N2C(=O)C(=O)N(c3ccccc3[N+](=O)[O-])C2=S)cc1", "target": "HOP-92 NSCLC", "observed.property": "TGI", "observed": 57.4}
{"compound": "CC(C)(C)[Si](OC1CC(n2cnc3c(N)ncnc32)OC1CO)(c1ccccc1)c1ccccc1 (stereo not drawn)", "target": "HOP-92 NSCLC", "observed.property": "TGI", "observed": 47.3}
{"compound": "CC1=CC(C)C/C=C/C2C3OC3(C)C(C)C3C(Cc4c[nH]c5ccccc45)NC(=O)C23C(=O)C=CC(=O)C1O (stereo not drawn)", "target": "HOP-92 NSCLC", "observed.property": "TGI", "observed": 3.13}

Turning to the following compound.
Param item = `COc1cc2cc3c4c(cc(OC)c(OC)c4c2cc1OC)CCN3C(=O)OCCN1CCNCC1` ; retrieve measured TGI.
26.2

###

For each of the compounds below, state its TGI.
- System: CCRF-CEM leukemia
- assay.comment: NCI tumour cell line growth inhibition, 48 h

// solved cases for TGI follow
{"compound": "CC(=O)c1cccc(NC(=O)C(=O)NNc2n[nH]c(=S)n2N)c1", "observed": "20.3 µM"}
{"compound": "Cc1ccc(C)c(C2=C(c3cn(C)c4ccccc34)C(=O)NC2=O)c1", "observed": "> 25 µM"}
{"compound": "COC(=O)CCC1=CCC2(SC)C(=O)Nc3cccc1c32 (stereo not drawn)", "observed": "> 100 µM"}
{"compound": "Cc1cc([N+](=O)[O-])ccc1Nc1cccc(Cl)c1C", "observed": "47.2 µM"}
{"compound": "CCCCC1=NNC(=O)C1", "observed": "> 100 µM"}

Hi, could you look up TGI for each item in my list?
1. CS(=O)(=O)Nc1ccc2c(c1)oc(=O)c1ccccc12
2. O=C1C2CC=CCC2C(=O)N1n1c(Cc2ccc(Cl)cc2)n[nH]c1=O (stereo not drawn)
3. COC(=O)CC(C#N)(OP1(=O)OC(c2ccccc2)C(C)N1C)c1ccccc1 (stereo not drawn)
4. COc1ccc(C(C)=O)cc1N1C(=O)C2C(C1=O)C1(c3ccccc3)C(=O)C2(c2ccccc2)C(c2ccc(C)cc2)=C1c1ccc(C)cc1 (stereo not drawn)
5. Cc1c([N+](=O)[O-])ccc2c(NCCCN(C)C)ccnc12
6. CCCCCCCCCCCCCC1=NC(C)(C)CN1C(C)C
7. CC(C)N(C(=O)C12C3C4C5(C#N)C3C1(C#N)C5C42I)C(C)C (stereo not drawn)
8. CC(C)CC1C(=O)NCCC(NC(=O)C(Cc2ccc(OC(C)(C)C)cc2)NC(=O)OC(C)(C)C)C(=O)NC(Cc2ccccc2)C(=O)NC(Cc2ccccc2)NC1=O (stereo not drawn)

["> 100 µM", "> 100 µM", "38.7 µM", "> 100 µM", "> 100 µM", "3.43 µM", "> 59.7 µM", "55 µM"]

Please report TGI for every entry that follows.
1. COc1ccc2c3c([nH]c2c1[N+](=O)[O-])C(C)=NCC3
2. CN1CCN(CCOc2ccc(-c3cnc4c(-c5ccccc5F)cnn4c3)cc2)CC1
3. O=C(NCC(=O)N1CCCC1C(=O)OC(=O)C1CCCN1C(=O)CNC(=O)OCc1ccccc1)OCc1ccccc1 (stereo not drawn)
4. COc1cc(C(Cc2ccccc2)NC(C)=O)oc(=O)c1 (stereo not drawn)

1: > 100 µM; 2: 4.77 µM; 3: > 100 µM; 4: > 100 µM

Look at each compound and report its TGI.
1. O=c1c2sc(=S)n(-c3ccc(F)cc3)c2ncn1Cc1ccc(F)cc1F
2. Cc1ccc(Cc2c(=O)[nH]nc3ccccc23)cc1
3. CCCCS(=O)CCC(N)P(=O)(O)O (stereo not drawn)
4. CCN1CCN(C(c2ccc(C(F)(F)F)cc2)c2ccc3cccnc3c2O)CC1 (stereo not drawn)

["> 100 µM", "> 100 µM", "> 100 µM", "7.85 µM"]

Below are 3 compounds. Give each one its TGI.
1. CCOc1ccccc1C=C1c2ccccc2C(=O)c2ccccc21
2. COc1ccc(N2C(=O)/C(=C(\C)c3cc4ccccc4oc3=O)N=C2c2cc([N+](=O)[O-])ccc2Cl)cc1
3. O=C(OC(CNc1cc(=O)n(Cc2ccccc2)c(=O)n1Cc1ccccc1)CN1CCCC1)c1ccccc1 (stereo not drawn)

1. 35.5 µM
2. > 100 µM
3. > 100 µM

###

- Tested on: SNB-19 CNS
- assay.comment: NCI tumour cell line growth inhibition, 48 h
Provide the recorded TGI for the entries that follow.

I need TGI for every entry listed below, if you could help.
1. CCCCCCNC(=O)c1cc(NCc2cc(O)ccc2O)ccc1O
2. O=c1[nH]c2c(nc1NC13CC4CC(CC(C4)C1)C3)c(=O)oc1ccccc12

1: 28.6 µM; 2: > 100 µM

// input: 7 molecules below; output: TGI for each
1. CC(C)(C)[Si](OC1CC(n2cnc3c(N)ncnc32)OC1CO)(c1ccccc1)c1ccccc1 (stereo unspecified)
2. N#Cc1c(NN)n(C2OC(CO)C(O)C2O)c2ncnc(N)c12 (stereo unspecified)
3. CCN(CC)c1ccc2c(c1)OC(N)=C(C#N)C2c1cc(OC)c2c(c1)OCO2 (stereo unspecified)
4. CN(C)/C=N/c1nc2c(ncn2C2OC(CO)C(O)C2O)c(=O)[nH]1 (stereo unspecified)
5. CC(C)=CC/C=C(/C)[C@H]1CC[C@]2(C)[C@@H]1CC[C@@H]1[C@@]3(C)CCCNC(C)(C)[C@@H]3CC[C@]12C
6. COc1cc(C(Cc2ccccc2)NC(C)=O)oc(=O)c1 (stereo unspecified)
7. COc1cc(OC)c(-c2ccc(OCc3ccccc3)c3c(OC)cc(C)cc23)c2c1C(C)=N[C@H](C)C2

1. 50 µM
2. > 29.5 µM
3. 51 µM
4. > 100 µM
5. 11.6 µM
6. > 100 µM
7. 4.54 µM

Below are 7 molecules. Give each one its TGI.
1. C=C1C(=O)O[C@@H]2C[C@@H]1CC/C(C)=C/CC/C(C)=C/CC[C@@]2(C)O
2. CC(=O)N(C)c1ccc(Nc2cc(C)[nH]c3ccc4ncnc4c23)cc1
3. CN(Cc1cnc2nc(N)nc(N)c2n1)c1ccc(C(=O)NC(CCC(=O)NCCC(P(=O)(O)O)P(=O)(O)O)C(=O)O)cc1 (stereo unspecified)
4. COC(=O)CCC1=CCC2(SC)C(=O)Nc3cccc1c32 (stereo unspecified)
5. OC[C@H]1C[C@](O)(c2ccc(Cl)cc2)[C@@H](c2ccc(Cl)cc2)O1
6. C=CCCCCC/C=C\[C@H](O)C#CC#C/C=C/CO
7. CCCn1c2ccccc2c2ccc3c(c21)C(=O)C=CC3=O

1. 76.2 µM
2. 42.4 µM
3. > 100 µM
4. > 100 µM
5. > 100 µM
6. > 100 µM
7. > 10 µM

Give TGI for all molecules that follow.
1. S=C1NC2(CCCCCC2)NN1c1ccccc1
2. O=C(O)C1C2C=CC(O2)C1C(=O)NCc1ccccn1 (stereo unspecified)
3. COc1cnc2c(c1)C(=O)c1c-2n(CCCNC(C)C)c(=O)c2cc(Cl)ccc12
4. CC(=O)Nc1ccc(N2C(=O)/C(=C\c3cccc(Oc4ccccc4)c3)S(=O)(=O)C2c2ccccc2)cc1 (stereo unspecified)

> 100 µM
> 100 µM
2.61 µM
> 100 µM

Returns the measured TGI for the input molecule. Input: `CCCC[C@@H]1CCN2C[C@@H](O)[C@@H](O)[C@@H]2[C@H]1O`
> 100 µM

###

- Test system: HL-60(TB) leukemia
- assay.comment: NCI tumour cell line growth inhibition, 48 h
observed.property: log10 TGI (log10 of the value in µM)
Please keep in mind that the values are log10 of TGI expressed in µM.

// each listed compound needs a value for log10 TGI
1. COc1cnc2c(c1)C(=O)c1c-2n(CCCNC(C)C)c(=O)c2cc(Cl)ccc12
2. CCCCCCCCCCCCOC1C(C(COC2OC(C3COC(C)(C)O3)C3OC(C)(C)OC23)NC(=O)Nc2ccc(C(=O)O)cc2)OC2OC(C)(C)OC21 (stereo not drawn)

1: 0.23; 2: 0.74

For every item below, please supply its log10 TGI.
1. O=C1C(Cl)N(c2ccc(Cl)cc2)C1c1c[nH]c2ccccc12 (stereo not drawn)
2. FC(F)(F)c1ccc(N=C/C=C(/Nc2ccc(C(F)(F)F)cc2)c2ccc(Cl)cc2)cc1
3. CC(=O)N(C)c1ccc(Nc2cc(C)[nH]c3ccc4ncnc4c23)cc1
4. CCOC(=O)CCCn1c(SC)nc2[nH]cc(-c3ccccc3)c2c1=O
5. COc1cc(OC)c(-c2ccc(OCc3ccccc3)c3c(OC)cc(C)cc23)c2c1C(C)=N[C@H](C)C2
6. N#Cc1c(-c2ccc(Cl)cc2)c2c([nH]c1=O)-c1ccccc1SC2

1: 1.65; 2: 1.82; 3: 1.28; 4: 1.18; 5: 0.64; 6: 1.75
